Test: Terminal half life in Sprague-Dawley rat at 20 mg/kg, iv administered as single bolus dose by HPLC-MS/MS analysis
Assay type: ADME, organism-based
Settings: in vivo, read-out: beta t1/2 (converted)
measured quantity: half-life (h)
Please respond with the number in h and leave the unit unwritten.

Exercise: Please give the measured half-life for this compound: O=C(Nc1ccc(CP(=O)(O)O)cc1)C1CCN(C(=O)OCc2cc(Cl)cc(Cl)c2)CC1
Key: 4.09

====

Test: Half life in Sprague-Dawley rat liver microsomes at 5 uM preincubated for 10 mins followed by NADPH addition measured up to 60 mins by LC-MS/MS analysis
Format: ADME, microsome
measured quantity: half-life at 5 µM

Exercise: Please give the measured half-life at 5 µM for this molecule: O=C(Nc1ccc(CP(=O)(O)O)cc1)C1CCN(C(=O)OCc2cc(Cl)cc(Cl)c2)CC1
Key: > 1 h
